Biological target: Histone deacetylase 7 (Homo sapiens)
Sequence (Q8WUI4 whole entry): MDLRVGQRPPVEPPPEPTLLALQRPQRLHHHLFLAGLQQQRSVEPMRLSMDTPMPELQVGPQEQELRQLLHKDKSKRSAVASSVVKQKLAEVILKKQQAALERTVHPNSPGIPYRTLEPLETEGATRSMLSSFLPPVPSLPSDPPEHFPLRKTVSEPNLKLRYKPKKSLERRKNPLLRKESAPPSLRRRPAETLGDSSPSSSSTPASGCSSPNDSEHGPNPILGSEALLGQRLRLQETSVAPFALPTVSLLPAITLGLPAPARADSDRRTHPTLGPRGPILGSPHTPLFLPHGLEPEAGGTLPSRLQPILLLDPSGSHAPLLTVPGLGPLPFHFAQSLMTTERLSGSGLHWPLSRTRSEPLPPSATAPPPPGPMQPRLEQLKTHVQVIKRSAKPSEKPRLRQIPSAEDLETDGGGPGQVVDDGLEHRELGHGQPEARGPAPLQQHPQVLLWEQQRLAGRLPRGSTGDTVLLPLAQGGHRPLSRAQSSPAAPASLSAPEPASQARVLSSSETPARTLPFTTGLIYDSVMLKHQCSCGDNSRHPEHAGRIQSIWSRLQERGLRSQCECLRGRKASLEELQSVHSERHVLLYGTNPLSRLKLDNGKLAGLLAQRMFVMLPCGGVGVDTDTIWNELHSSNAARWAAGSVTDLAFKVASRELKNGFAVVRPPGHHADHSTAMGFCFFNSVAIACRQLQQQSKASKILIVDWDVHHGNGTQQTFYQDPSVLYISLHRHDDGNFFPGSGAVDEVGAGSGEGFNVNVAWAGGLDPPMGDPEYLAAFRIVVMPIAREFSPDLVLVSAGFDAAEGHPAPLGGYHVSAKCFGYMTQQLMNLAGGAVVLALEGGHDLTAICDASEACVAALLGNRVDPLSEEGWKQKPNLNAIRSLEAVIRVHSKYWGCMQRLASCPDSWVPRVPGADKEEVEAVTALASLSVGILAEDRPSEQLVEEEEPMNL
Test: Inhibition of recombinant HDAC7 (unknown origin) using Boc-Lys(trifluoroacetyl)-AMC as substrate preincubated for 1 hr followed by substrate addition and measured after 2 hrs by fluorescence based micro plate reader analysis
READOUT_NAME: IC50

Reported IC50 for `CCCNNC(=O)c1ccc(Cn2c3ccccc3c3c(-c4ccccn4)nc4ccccc4c32)cc1` : what is it?
> 10 µM

* * *

Assay: Apparent volume of distribution in male Sprague-Dawley rat at 2 mg/kg, iv measured after 12 hrs by LC-MS/MS analysis
Type: ADME, organism-based
Conditions: in vivo, read-out: Vz
READOUT_NAME: Vd (L/kg)
Number only, in L/kg; omit the unit.

May I ask what Vd has been recorded for `CCCNNC(=O)c1ccc(Cn2c3ccccc3c3c(-c4ccccn4)nc4ccccc4c32)cc1` ?
2.17

* * *

Molecular target: Histone deacetylase 3 (Homo sapiens, UniProt O15379)
Sequence (O15379 whole entry): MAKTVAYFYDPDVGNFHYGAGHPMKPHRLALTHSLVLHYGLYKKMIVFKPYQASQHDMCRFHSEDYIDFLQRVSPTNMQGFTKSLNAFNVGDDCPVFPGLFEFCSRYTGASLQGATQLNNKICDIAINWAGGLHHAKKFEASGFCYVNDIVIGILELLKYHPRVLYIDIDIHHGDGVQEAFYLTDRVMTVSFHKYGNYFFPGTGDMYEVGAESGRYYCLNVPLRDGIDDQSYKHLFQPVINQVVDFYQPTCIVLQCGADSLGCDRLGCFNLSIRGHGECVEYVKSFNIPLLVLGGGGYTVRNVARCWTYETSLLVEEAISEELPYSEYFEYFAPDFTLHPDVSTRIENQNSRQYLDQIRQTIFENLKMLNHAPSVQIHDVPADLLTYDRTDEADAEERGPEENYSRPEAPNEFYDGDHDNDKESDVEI
Experiment: Inhibition of recombinant HDAC3 (unknown origin) using Boc-Lys(acetyl)-AMC as substrate preincubated for 1 hr followed by substrate addition and measured after 2 hrs by fluorescence based micro plate reader analysis
READOUT_NAME: IC50
Numeric answer plus unit only.

Need IC50, item `CCCNNC(=O)c1ccc(Cn2c3ccccc3c3c(-c4ccccn4)nc4ccccc4c32)cc1`
42 nM

* * *

Experiment: Clearance in male Sprague-Dawley rat at 2 mg/kg, iv measured after 12 hrs by LC-MS/MS analysis
Type: ADME, organism-based
Details: in vivo
READOUT_NAME: clearance (mL/min/kg)
All answers are understood in mL/min/kg, so give the number only.

Requested read-out: clearance. Entry: `CCCNNC(=O)c1ccc(Cn2c3ccccc3c3c(-c4ccccn4)nc4ccccc4c32)cc1`
39.6

* * *

Test: AUC (0 to 12 hrs) in male Sprague-Dawley rat at 20 mg/kg, po measured after 12 hrs by LC-MS/MS analysis
Assay type: ADME, organism-based
Settings: in vivo
READOUT_NAME: AUC(0-t) at 12 h (ng·h/mL)
Give your result in ng·h/mL as a bare value.

Given the compound `CCCNNC(=O)c1ccc(Cn2c3ccccc3c3c(-c4ccccn4)nc4ccccc4c32)cc1` , what is its reported AUC(0-t) at 12 h?
7830

* * *

Target: Protein deacetylase HDAC6 (Homo sapiens)
Details: dose 500.0 nM, time 3.0 hrs
READOUT_NAME: inhibition (%)
# unit: % | format: bare number

CCCNNC(=O)c1ccc(Cn2c3ccccc3c3c(-c4cc(OC)ccc4O)nc4ccccc4c32)cc1; 14
Nc1ccccc1NC(=O)c1ccc(CNC(=O)OCc2cccnc2)cc1; 24
CCCNNC(=O)c1ccc(Cn2c3ccccc3c3c(-c4cc(Cl)ccc4O)nc4ccccc4c32)cc1; 30
CCCNNC(=O)c1ccc(Cn2c3ccccc3c3c(-c4cccc([N+](=O)[O-])c4)nc4ccccc4c32)cc1; 18

Attention now turns to another entry.
If you can, please state the reported inhibition value of `CCCNNC(=O)c1ccc(Cn2c3ccccc3c3c(-c4ccccn4)nc4ccccc4c32)cc1` .
17
